Measured on: DUSP5 PD(WT) (Homo sapiens)
Construct: The DUSP5 phosphatase domain (DUSP5 PD(WT)) gene was synthesized by Blue Heron; made in house
Sequence (Q16690 178-319 limits assumed): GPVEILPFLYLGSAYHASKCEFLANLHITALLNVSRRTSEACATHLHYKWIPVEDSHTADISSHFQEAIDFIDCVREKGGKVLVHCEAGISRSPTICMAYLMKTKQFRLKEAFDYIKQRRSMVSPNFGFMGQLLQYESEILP
Assay info: DUSP5 PD(WT) in vitro phosphatase assay with pNPP as substrate
Type: biochemical
Test parameters: read-out: DUSP5 PD(WT) inhibitor IC50, assay reaction period 0 – 10 min; MP Biomedicals and RR535 stocks exposed to light 90 days, RR601 freshly prepared; pNPP; ± SE
Measured attribute: IC50 (µM)
// return numeric value only (unit: µM, not printed)

Q: Reported IC50 for DUSP5 PD(WT) (Homo sapiens), given O=S(=O)(O)c1cc(O)c2cccc(/N=N/c3cccc4c(O)cc(S(=O)(=O)O)cc34)c2c1 [RR601] ?
Result: 36.9

====

Measured on: SHP-2 (Homo sapiens, UniProt Q06124)
Measured attribute: IC50 (nM)
# number only, unit nM dropped from output

Q: What measured IC50 goes with O=S(=O)(O)c1cc(O)c2cccc(/N=N/c3cccc4c(O)cc(S(=O)(=O)O)cc34)c2c1 ?
Result: 1100

====

Measured on: GST-DUSP5 (Homo sapiens, UniProt Q16690)
Measured attribute: pIC50
Keep in mind that pIC50 stands for -log10 of concentration in molar terms.

Q: Please look up its pIC50: O=S(=O)(O)c1cc(O)c2cccc(/N=N/c3cccc4c(O)cc(S(=O)(=O)O)cc34)c2c1 [RR601]
Result: 5.32

====

Target sequence: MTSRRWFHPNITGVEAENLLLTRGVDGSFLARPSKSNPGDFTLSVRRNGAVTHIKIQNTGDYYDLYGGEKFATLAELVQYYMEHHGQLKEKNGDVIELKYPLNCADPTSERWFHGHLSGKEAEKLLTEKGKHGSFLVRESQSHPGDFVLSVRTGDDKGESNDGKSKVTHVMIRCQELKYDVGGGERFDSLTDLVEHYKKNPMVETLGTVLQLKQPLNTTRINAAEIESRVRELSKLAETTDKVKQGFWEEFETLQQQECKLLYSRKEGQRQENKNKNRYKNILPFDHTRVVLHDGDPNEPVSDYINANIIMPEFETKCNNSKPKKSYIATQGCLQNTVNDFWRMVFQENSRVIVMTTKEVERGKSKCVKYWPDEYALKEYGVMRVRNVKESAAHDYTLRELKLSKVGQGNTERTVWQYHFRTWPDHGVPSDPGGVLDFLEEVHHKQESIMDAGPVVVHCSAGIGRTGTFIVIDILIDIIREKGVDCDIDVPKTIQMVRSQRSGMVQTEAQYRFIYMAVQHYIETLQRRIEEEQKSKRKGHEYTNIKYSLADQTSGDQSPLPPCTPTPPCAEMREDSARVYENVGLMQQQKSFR
Measured attribute: pKi
Entry type: numeric. Quantity: pKi, the -log10 of concentration in molar units.

Q: Would you kindly share the measured pKi for O=S(=O)(O)c1cc(O)c2cccc(/N=N/c3cccc4c(O)cc(S(=O)(=O)O)cc34)c2c1 [RR601] ?
Result: 6.42

====

Measured on: DUSP5 PD(WT) (Homo sapiens)
Construct: The DUSP5 phosphatase domain (DUSP5 PD(WT)) gene was synthesized by Blue Heron; made in house
Assay info: DUSP5 PD(WT) in vitro phosphatase assay with pNPP as substrate
Assay type: biochemical
Test parameters: pNPP substrate; read-out: IC50, DUSP5 PD(WT) (summary value)
Measured attribute: IC50 (µM)
Give the value in µM but do not write µM after it.

Q: Please tell me: IC50 of O=S(=O)(O)c1cc(O)c2cccc(/N=N/c3cccc4c(O)cc(S(=O)(=O)O)cc34)c2c1 , system DUSP5 PD(WT) (Homo sapiens)?
Result: 36

====

Measured on: DUSP5 PD(WT) (Homo sapiens, UniProt Q16690)
Construct: The DUSP5 phosphatase domain (DUSP5 PD(WT)) gene was synthesized by Blue Heron; made in house
Assay info: DUSP5 PD(WT) in vitro phosphatase assay with pNPP as substrate
Assay type: biochemical
Test parameters: read-out: DUSP5 PD(WT) inhibitor IC50, assay reaction period 30 – 40 min; MP Biomedicals and RR535 stocks exposed to light 90 days, RR601 freshly prepared; pNPP; ± SE
Measured attribute: pIC50
The quantity pIC50 is defined as the negative base-10 logarithm of the molar concentration.

Q: API: value(readout= pIC50, system= DUSP5 PD(WT) (Homo sapiens, UniProt Q16690), query= O=S(=O)(O)c1cc(O)c2cccc(/N=N/c3cccc4c(O)cc(S(=O)(=O)O)cc34)c2c1 )
Result: 4.46
